# ASSAY NAME: Water solubility, hygroscopic property and stability (statements in words)
# Assay type: physicochemical
Counter-ions that a name gives are not always drawn.

| COMPOUND | stability |
| --- | --- |
| CCC(C)C(=O)OC1CCC=C2C=CC(C)C(CCC(CC(O)CC(=O)OC)OP(=O)(O)O)C21 (stereo not drawn) [CB3A methyl ester-Ca salt, Calcium salt of CB3A methyl ester] | particularly excellent |
| CCC(C)C(=O)OC1CC(C)C=C2C=CC(C)C(CCC(CC(O)CC(=O)O)OP(=O)(O)O)C21 (stereo not drawn) [CK3A-1.5Ca salt, Sesquicalcium salt of CK3A] | particularly excellent |

###

# ASSAY NAME: Stability, 5 weeks at 45° C. and humidity of 80% (HPLC remaining rate)
# Assay type: physicochemical
# STATED CONDITIONS: after 5 weeks, humidity of 80%, 50400 min
Counter-ions that a name gives are not always drawn.
Remaining rate strictly less than 80% = T. Otherwise F.

| COMPOUND | ASSIGNED CLASS |
| --- | --- |
| CCC(C)C(=O)OC1CC(C)C=C2C=CC(C)C(CCC(CC(O)CC(=O)O)OP(=O)(O)O)C21 (stereo not shown) [CK3A-Al salt, Aluminum salt of CK3A] | F |
| CCC(C)C(=O)OC1CC(C)C=C2C=CC(C)C(CCC(CC(O)CC(=O)O)OP(=O)(O)O)C21 (stereo not shown) [CK3A, reference compound] | T |
| CCC(C)C(=O)OC1CCC=C2C=CC(C)C(CCC(CC(O)CC(=O)O)OP(=O)(O)O)C21 (stereo not shown) [CB3A-1Na salt] | T |
| CCC(C)C(=O)OC1CCC=C2C=CC(C)C(CCC(CC(O)CC(=O)O)OP(=O)(O)O)C21 (stereo not shown) [CB3A-Al salt, Aluminum salt of CB3A] | F |
| CCC(C)C(=O)OC1CCC=C2C=CC(C)C(CCC(CC(O)CC(=O)O)OP(=O)(O)O)C21 (stereo not shown) [CB3A, reference compound] | T |
| CCC(C)C(=O)OC1CC(C)C=C2C=CC(C)C(CCC(CC(O)CC(=O)O)OP(=O)(O)O)C21 (stereo not shown) [CK3A-3K salt, Tripotassium salt of CK3A] | F |

###

# ASSAY NAME: Stability, 5 weeks at 45° C. and humidity of 80% (HPLC remaining rate)
# Type: physicochemical
# STATED CONDITIONS: after 5 weeks, humidity of 80%, 50400 min
Where a name gives a salt, the structure may show the parent alone.
Overview of reported Remaining rate across a group of molecules:

| MOLECULE | Remaining rate |
| --- | --- |
| CCC(C)C(=O)OC1CCC=C2C=CC(C)C(CCC(CC(O)CC(=O)O)OP(=O)(O)O)C21 (stereo not drawn) [CB3A-1.5Ca salt, Sesquicalcium salt of CB3A] | 97% |
| CCC(C)C(=O)OC1CC(C)C=C2C=CC(C)C(CCC(CC(O)CC(=O)O)OP(=O)(O)O)C21 (stereo not drawn) [CK3A-1.5Ca salt, Sesquicalcium salt of CK3A] | 96% |
| CCC(C)C(=O)OC1CCC=C2C=CC(C)C(CCC(CC(O)CC(=O)O)OP(=O)(O)O)C21 (stereo not drawn) [CB3A-3Na salt, Trisodium salt of CB3A] | 82% |

###

# Test system: rat
# ASSAY NAME: Acute toxicity, rat
# Type: in vivo
# STATED CONDITIONS: intraperitoneal injection
# Text: The acute toxicity of the metal salt of CB3A and of CK3A was examined by orally or peritoneally administrating an aqueous solution or dispersion thereof the results are shown in Table 2. a . . . per os (oral administration) b . . . intraperitoneal injection
Counter-ions that a name gives are not always drawn.
READOUT TYPE: LD50

| COMPOUND | TEST SYSTEM | READOUT TYPE | ASSAY VALUE |
| --- | --- | --- | --- |
| CCC(C)C(=O)OC1CCC=C2C=CC(C)C(CCC(CC(O)CC(=O)O)OP(=O)(O)O)C21 (stereo not drawn) [CB3A-Al salt, Aluminum salt of CB3A] | rat | LD50 | > 500 mg/kg |
| CCC(C)C(=O)OC1CCC=C2C=CC(C)C(CCC(CC(O)CC(=O)O)OP(=O)(O)O)C21 (stereo not drawn) [CB3A-1.5Ca salt, Sesquicalcium salt of CB3A] | rat | LD50 | > 500 mg/kg |
| CCC(C)C(=O)OC1CC(C)C=C2C=CC(C)C(CCC(CC(O)CC(=O)O)OP(=O)(O)O)C21 (stereo not drawn) [CK3A-Al salt, Aluminum salt of CK3A] | rat | LD50 | > 500 mg/kg |
